PROTOCOL_TEXT: qHTS Assay for Lipid Storage Modulators in Drosophila S3 Cells
MEASUREMENT_CONDITIONS: BODIPY lipid droplet fluorescence, 18-24 h, cells fed with added oleic acid; series mostly up to 46.1 µM
Among all 320,000 compounds or so, about 2,100 (0.66%) were called active. Another 53% or so got no clear call; they are omitted. Calls come from the whole dose curve; as a rule, active = well fitted inhibition curve with a large enough effect in the signal ratio, with a control signal flat (not every such curve was filed as active); inconclusive = small, poorly fitted or top-dose-only effect, or effect the other way, or a change in a side signal; inactive = flat fitted curve, though single readings scatter; the % refers to the signal ratio. The list comes from a sample in which actives are over-represented; it also holds close analogues and randomly drawn compounds.
Tick one outcome: YES = active, NO = inactive

The following molecules have reported results that may help.
molecule="Cc1ccc(C(NC(=O)N2CC(C)OC(C)C2)C(Cl)Cl)cc1F (stereo not drawn)" assigned_class=NO
molecule="CCC(C(=O)OCC(=O)N1C(C)CCCC1C)c1ccccc1 (stereo not drawn)" assigned_class=NO
molecule=O=C(NCCN1C(=O)S/C(=C\c2cccnc2)C1=O)c1ccc([N+](=O)[O-])s1 assigned_class=NO
molecule=CCCNC(=O)Nc1cccc(NC(C)=O)c1 assigned_class=NO
molecule=O=C(Cn1nnc(-c2cccs2)n1)NCc1ccco1 assigned_class=NO

Input line: Could you kindly confirm the outcome this assay logged for O=C(CN1CCN(S(=O)(=O)c2ccccc2)CC1)Nc1ccnn1C1CCCC1 ?
Output line: NO

Input line: Could you kindly confirm the outcome this assay logged for COc1ccc(CC(=O)Nc2cccc(S(=O)(=O)N3CCCCCC3)c2)cc1OC ?
Output line: YES

Input line: Could you kindly confirm the outcome this assay logged for COc1ccc(CC(=O)Nc2cccc(S(=O)(=O)N3CCOCC3)c2)cc1OC ?
Output line: YES

Input line: Could you kindly confirm the outcome this assay logged for COc1ccccc1NC(=O)C1CCCN(c2ncnc3c2nc2n3CCCCC2)C1 (stereo not drawn) ?
Output line: NO

Input line: Could you kindly confirm the outcome this assay logged for O=C1Nc2ncccc2OC1CCO (stereo not drawn) ?
Output line: YES

Input line: Could you kindly confirm the outcome this assay logged for COc1ccc(CC(=O)Nc2cccc(S(=O)(=O)N3CCCCC3)c2)cc1 ?
Output line: NO

Input line: Could you kindly confirm the outcome this assay logged for O=C(NCc1ccccc1Cl)c1cccc(C(F)(F)F)c1 ?
Output line: NO

Input line: Could you kindly confirm the outcome this assay logged for CCC(C)NC(=O)C(=O)NCc1ccccn1 (stereo not drawn) ?
Output line: NO

Input line: Could you kindly confirm the outcome this assay logged for COc1ccc(NC(=O)COC(=O)[C@@H]2CCCN2C(=O)c2cccs2)cc1 ?
Output line: YES

Input line: Could you kindly confirm the outcome this assay logged for O=C(CCC(=O)N1CCOc2ccccc21)Nc1cc(F)ccc1F ?
Output line: NO

Input line: Could you kindly confirm the outcome this assay logged for O=C(CN1CCN(S(=O)(=O)c2ccc3ccccc3c2)CC1)Nc1ccc(N2CCOCC2)cc1 ?
Output line: NO

Input line: Could you kindly confirm the outcome this assay logged for O=C(Cc1ccc(Br)cc1)Nc1cccc(S(=O)(=O)N2CCOCC2)c1 ?
Output line: NO

---

PROTOCOL_TEXT: qHTS Assay for Lipid Storage Modulators in Drosophila S3 Cells;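 for cell number change: cells counted by Cell Tracker Red CMTPX staining in the red channel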
MEASUREMENT_CONDITIONS: BODIPY lipid droplet fluorescence, 18-24 h, cells fed with added oleic acid; measured here: cell count max response
From the text: NIH Molecular Libraries Probe Production Centers Network [MLPCN] NIH Chemical Genomics Center [NCGC] […] Triacsin C (Sigma-Aldrich T-4540), an inhibitor of long-chain fatty acyl CoA synthetase that blocks synthesis of triglycerides, was used as a positive control for lipid under-storage. […] Fluorescence was detected by excitation of the fluorophores with a 488-nm laser on an Acumen Explorer (TTP Lab Tech). […] Cells were detected using channel 3 (575-640 nm) with 5-um width and 100-um depth filters. […]
In all, about 320,000 compounds went through this assay and about 2,100 (0.66%) were called active. Another 53% or so got no clear call; they are omitted. For the sample, actives were picked, then their nearest neighbours and some compounds at random.
READOUT_NAME: cell number change (%)
Numeric answer only, unit % assumed.

Some solved entries appear below for comparison.
compound=CCOC(=O)N1CCN(c2c(N3CCN(c4ccc(OC)cc4)CC3)c(=O)c2=O)CC1 output_unit=% value_reported=5.73
compound=O=C(CCN1C(=O)/C(=C/c2ccccc2Cl)SC1=S)Nc1ccccn1 output_unit=% value_reported=-0.66
compound=O=C(CCN1C(=O)/C(=C/c2ccccc2F)SC1=S)Nc1ccccn1 output_unit=% value_reported=23.3
compound="CCOc1c(N2CC(C)OC(C)C2)c(=O)c1=O (centres undefined)" output_unit=% value_reported=-16.5

Input line: // Input: Oc1ccccc1-n1c(-c2ccccc2)ccc1-c1ccccc1 . Output its cell number change only.
Output line: -6.63

Input line: // Input: Cc1nnc(SCC(=O)Nc2ccc(N3CCOCC3)cc2)n1-c1ccccc1 . Output its cell number change only.
Output line: -17.5

Input line: // Input: CC(C)(CO)N=C1NS(=O)(=O)c2cc([N+](=O)[O-])ccc21 . Output its cell number change only.
Output line: 2.18

Input line: // Input: CCC1CN(C(=O)N2CCC(C(=O)NCCc3ccccc3OC)CC2)c2ccccc2O1 (centres undefined) . Output its cell number change only.
Output line: 13.3

Input line: // Input: Cc1ccc(-c2csc3nc[nH]c(=O)c23)cc1C . Output its cell number change only.
Output line: -18.4

---

PROTOCOL_TEXT: qHTS Assay for Lipid Storage Modulators in Drosophila S3 Cells
MEASUREMENT_CONDITIONS: BODIPY lipid droplet fluorescence, 18-24 h, cells fed with added oleic acid; series mostly up to 46.1 µM
In all, about 320,000 compounds went through this assay and about 2,100 (0.66%) were called active. About 53% were inconclusive and are not listed. Calls follow the shape of the dose curve; as a rule, active = well fitted inhibition curve with a large enough effect in the signal ratio, with a control signal flat (not every such curve was filed as active); inconclusive = small, poorly fitted or top-dose-only effect, or effect the other way, or a change in a side signal; inactive = flat fitted curve, though single readings scatter; the % refers to the signal ratio. The sample holds actives, similar compounds and a random draw of the others, so the mix is not that of the screen.
Tick one outcome: active, inactive

Input line: Could you kindly confirm the outcome this assay logged for CCCCCCCCOC(=O)CCn1[nH]c(=O)c2ccccc2c1=O ?
Output line: inactive

---

PROTOCOL_TEXT: qHTS Assay for Lipid Storage Modulators in Drosophila S3 Cells;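 for cell number change: cells counted by Cell Tracker Red CMTPX staining in the red channel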
MEASUREMENT_CONDITIONS: BODIPY lipid droplet fluorescence, 18-24 h, cells fed with added oleic acid; measured here: cell count max response
Hit rate of the full screen: of about 320,000 compounds, about 2,100 (0.66%) were called active. Inconclusive results (about 53%) are left out. Shown is part of a subset that was picked to be rich in actives.
Each entry below carries its reported cell number change.
Numeric answer only, unit % assumed.

Some solved entries appear below for comparison.
molecule=CCOC(=O)C1CCN(Cc2nnc(-c3ccccc3C)o2)CC1 readout_name="cell number change" value_reported=14.7
molecule="COc1ccc(NC2CC(=O)N(c3cccc(C)c3)C2=O)cc1 (stereo unspecified)" readout_name="cell number change" value_reported=-0.809
molecule="O=C1NC2(CCSC2)C(=O)N1CC(=O)N(Cc1ccccc1)C1CCS(=O)(=O)C1 (stereo unspecified)" readout_name="cell number change" value_reported=1.14

Input line: // Input: CCOC(=O)c1c(NC(=O)c2ccccc2C(=O)O)sc2c1CCC2 . Output its cell number change only.
Output line: 7.14

Input line: // Input: COCCN(C(=O)C(=O)NC1CCCC1)C(C(=O)NC1CCCC1)c1ccccc1F (stereo unspecified) . Output its cell number change only.
Output line: 6.8

Input line: // Input: N#Cc1ccc(/C=N/NC(=O)c2cc(-c3cccs3)nc3ccccc23)cc1 . Output its cell number change only.
Output line: 12.5

Input line: // Input: CSc1ccc(CCNC(=O)CN2C(=O)CCSc3ccccc32)cc1 . Output its cell number change only.
Output line: 2.42

Input line: // Input: CC(NC(=O)COC(=O)CNC(=O)c1ccc(-c2ccccc2)cc1)c1ccccc1 (stereo unspecified) . Output its cell number change only.
Output line: 0.973

Input line: // Input: CC(=O)NCC(=O)N(Cc1ccco1)C1(C(=O)NC2CCCC2)CCCCC1 . Output its cell number change only.
Output line: 17.4

Input line: // Input: CCOC(=O)c1c(NC(=O)c2cccnc2)sc(C(C)=O)c1C . Output its cell number change only.
Output line: 5.18

Input line: // Input: O=C(Cc1cccs1)N(Cc1ccco1)C1(C(=O)NC2CCCC2)CCCCC1 . Output its cell number change only.
Output line: -17

Input line: // Input: COc1ccc(/C=C/C(=O)NC(C)CCc2ccccc2)cc1OC (stereo unspecified) . Output its cell number change only.
Output line: 0.149

Input line: // Input: O=C1CCCc2ccccc2N1Cc1ccc(Cl)cc1 . Output its cell number change only.
Output line: -1.32

Input line: // Input: CC1CCCCN1Cc1c(O)ccc2c(=O)c(-c3ccc(Cl)cc3Cl)coc12 (stereo unspecified) . Output its cell number change only.
Output line: -3.44

Input line: // Input: O=C(CN(C(=O)c1csnn1)c1cccc(Cl)c1)NCCc1ccccc1 . Output its cell number change only.
Output line: 12.4

Input line: // Input: Cn1c2ccccc2c2nnc(SCC(=O)NC3CCCC3)nc21 . Output its cell number change only.
Output line: -23.7

Input line: // Input: CCOc1ccccc1OCCCC(=O)N1CCN(S(=O)(=O)c2ccc(C)cc2)CC1 . Output its cell number change only.
Output line: -13.5

Input line: // Input: CCOc1ccc(CN(C)C(=O)[C@H](Cc2ccccc2)NC(=O)OCc2ccccc2)cc1OC . Output its cell number change only.
Output line: 6.3

Input line: // Input: COc1ccc(N2CCN(C(=O)CSc3nnc4c5cc(C)ccc5n(C)c4n3)CC2)cc1 . Output its cell number change only.
Output line: 15.5

Input line: // Input: CCOC(=O)C1CCCN(CCC(C)c2ccccc2)C1 (stereo unspecified) . Output its cell number change only.
Output line: 2.31

Input line: // Input: COc1ccc(S(=O)(=O)Oc2ccc(C(=S)N3CCOCC3)cc2OC)cc1 . Output its cell number change only.
Output line: -13.8
